Measurement notes: gradient 5% acetonitrile 3 min, to 50% in 2 min, to 85% in 15 min, held 3 min, 100 µL/min
Measurement context: column: Zorbax Extend-C18 2.1 x 50 mm; eluents: water / acetonitrile, 0.1% formic acid
Experimental endpoint: RP-LC retention time (s)
The answer is to be given in s; state only the numeric part.

COc1cc2c(cc1CNC(=O)COc1ccc(Cl)cc1)OCCCO2 | 982

Input `Cc1ccc(-c2nc3sc(N4CCCCC4)nn3c2NC(=O)c2ccnn2C)cc1` . Output RP-LC retention time: 887

Input `O=C(COc1ccc(F)cc1)Nc1ccccc1NC(=O)c1ccccc1Cl` . Output RP-LC retention time: 853

Input `COCCN1C(=O)[C@H]2CN(Cc3ccc(Cl)c(F)c3)C[C@H]2C1=O` . Output RP-LC retention time: 638

Input `CCOc1ccccc1NC(=O)N1CCc2nc(-c3ccc(OC)cc3)ncc2C1` . Output RP-LC retention time: 1000

====

Measurement notes: gradient 5% acetonitrile 3 min, to 50% in 2 min, to 85% in 15 min, held 3 min, 100 µL/min
Measurement context: column: Zorbax Extend-C18 2.1 x 50 mm; eluents: water / acetonitrile, 0.1% formic acid
Experimental endpoint: RP-LC retention time (s)
The answer is to be given in s; state only the numeric part.

O=C(CN1CN(c2ccccc2)c2ncccc2S1(=O)=O)Nc1ccccc1Cl | 934
CCOC(=O)Cc1cc(=O)c2cc(C)ccc2[nH]1 | 695
CCN1C(=O)COc2cc(-c3noc(C(=O)NCCc4ccccc4)n3)ccc21 | 953
CCOC(=O)c1c(CN2CCN(CC#N)CC2)n(C)c2cc(Br)c(OC(C)=O)cc12 | 706
CCCNc1cc(N2CCC(CCC(=O)NCc3ccc(C)cc3)CC2)ncn1 | 716

Input `COc1ccc(-c2nc3ccccn3c2NC(=O)c2ccc([N+](=O)[O-])cc2)cc1` . Output RP-LC retention time: 662

Input `COC[C@@H]1CN(S(=O)(=O)C(C)C)C[C@H]1c1ccccn1` . Output RP-LC retention time: 619

Input `O=C(c1ccc(S(=O)(=O)c2ccc(Br)cc2)nc1)N1CCN(c2ccccn2)CC1` . Output RP-LC retention time: 673

Input `O=c1cccnn1CCNS(=O)(=O)c1ccc(OC(F)(F)F)cc1` . Output RP-LC retention time: 711

====

Measurement notes: gradient 5% acetonitrile 3 min, to 50% in 2 min, to 85% in 15 min, held 3 min, 100 µL/min
Measurement context: column: Zorbax Extend-C18 2.1 x 50 mm; eluents: water / acetonitrile, 0.1% formic acid
Listed below: RP-LC retention time values for each entry.
The reply should read as a number followed by its unit.

Observe how each entry below is paired with its result.
O=C(O)C1CCCCC1C(=O)NCCc1csc(-c2cccnc2)n1 (centres undefined) | 593 s
CCc1ccc(-n2c(CN3CCN(C(=O)NCC4CCCO4)CC3)nc3cccnc32)cc1 (centres undefined) | 636 s

Input CC(C)C(=O)NCC(c1ccccc1Cl)c1c[nH]c2ccccc12 (centres undefined) . Output RP-LC retention time: 929 s

Input `CCCC(CCC)C(=O)Nc1cc(-c2cn3cccnc3n2)ccc1C` . Output RP-LC retention time: 758 s

Input `O=C1COc2ccccc2N1Cc1nc(-c2ccc3c(c2)OCO3)no1` . Output RP-LC retention time: 934 s

Input `CCOc1ccccc1NC(=O)N1CCC2(CC1)NC(=O)c1ccccc1N2C` . Output RP-LC retention time: 807 s

Measured values drawn from the METLIN SMRT retention time set (Domingo-Almenara et al. 2019) for this set.
